PROTOCOL TEXT: Lipophilicity determination by HPLC (capacity factor k, distribution coefficients DpH)
Type: physicochemical
SETTINGS: MeOH 72 % / acetate-buffered saline pH 7.4 28 %
Assign labels as follows, please: Yes for log D7.4 below 0.5; No for log D7.4 equal to or exceeding 0.5.

For orientation, consider the following solved cases.
INSERT INTO measurements (item_smiles, classification) VALUES
  ('O=C(Nc1cc(Cl)c(Cl)c(Cl)c1)c1ccc2ccccc2c1O', 'No'),
  ('O=C(Nc1cccc(Cl)c1Cl)c1ccc2ccccc2c1O', 'Yes'),
  ('O=C(Nc1ccccc1)c1ccc2ccccc2c1O', 'No');

Input line: Is it true that log D7.4 reported for O=C(Nc1c(Cl)cccc1Cl)c1ccc2ccccc2c1O is less than 0.5?
Output line: Yes

Input line: Is it true that log D7.4 reported for O=C(Nc1ccccc1Cl)c1ccc2ccccc2c1O is less than 0.5?
Output line: No

Input line: Is it true that log D7.4 reported for O=C(Nc1cc(Cl)ccc1Cl)c1ccc2ccccc2c1O is less than 0.5?
Output line: Yes

Input line: Is it true that log D7.4 reported for O=C(Nc1ccc(Cl)cc1Cl)c1ccc2ccccc2c1O is less than 0.5?
Output line: Yes

Input line: Is it true that log D7.4 reported for O=C(Nc1ccc(Cl)cc1)c1ccc2ccccc2c1O is less than 0.5?
Output line: No

Input line: Is it true that log D7.4 reported for O=C(Nc1cc(Cl)cc(Cl)c1)c1ccc2ccccc2c1O is less than 0.5?
Output line: No

----------
PROTOCOL TEXT: Lipophilicity determination by HPLC (capacity factor k, distribution coefficients DpH)
Type: physicochemical
SETTINGS: MeOH 72 % / H2O 28 %, C18
Listing of entries alongside the reported log k.
Respond using a number only.

INSERT INTO assay_data (item_smiles, experimental_readout, data_value) VALUES
  ('O=C(Nc1c(Cl)cccc1Cl)c1ccc2ccccc2c1O', 'log k', 0.5729),
  ('O=C(Nc1cccc(Cl)c1Cl)c1ccc2ccccc2c1O', 'log k', 0.6838);

// recorded log k for O=C(Nc1cc(Cl)ccc1Cl)c1ccc2ccccc2c1O : 0.6717

----------
PROTOCOL TEXT: Lipophilicity determination by HPLC (capacity factor k, distribution coefficients DpH)
Assay type: physicochemical
SETTINGS: MeOH 72 % / acetate-buffered saline pH 7.4 28 %
Listing of entries alongside the reported log D7.4.
Respond using a number only.

Look over these answered cases.
INSERT INTO assay_data (item_smiles, experimental_readout, data_value) VALUES
  ('O=C(Nc1c(Cl)cc(Cl)cc1Cl)c1ccc2ccccc2c1O', 'log D7.4', 0.6825),
  ('O=C(Nc1ccc(Cl)c(Cl)c1)c1ccc2ccccc2c1O', 'log D7.4', 0.8909);

Please look at the following molecule next.
// recorded log D7.4 for O=C(Nc1cccc(Cl)c1)c1ccc2ccccc2c1O : 0.7227

----------
PROTOCOL TEXT: Lipophilicity determination by HPLC (capacity factor k, distribution coefficients DpH)
Type: physicochemical
SETTINGS: MeOH 72 % / acetate-buffered saline pH 6.5 28 %
EXPERIMENTAL READOUT: log D6.5
Respond using a number only.

// recorded log D6.5 for O=C(Nc1ccccc1Cl)c1ccc2ccccc2c1O : 0.5828

// recorded log D6.5 for O=C(Nc1cc(Cl)cc(Cl)c1)c1ccc2ccccc2c1O : 0.9531

// recorded log D6.5 for O=C(Nc1c(Cl)cccc1Cl)c1ccc2ccccc2c1O : 0.4516

----------
Listing of entries alongside the reported CC50 at 24 h.
PROTOCOL TEXT: in vitro
Give a bare numeral; the unit nM is implied.

INSERT INTO results (compound, endpoint_unit, data_value) VALUES
  ('CC1(C)S[C@@H]2[C@H](NC(=O)[C@H](N)c3ccccc3)C(=O)N2[C@H]1C(=O)O [APC, ampicillin, reference compound]', 'nM', 800);

Please look at the following compound next.
// recorded CC50 at 24 h for CC[C@@]1(O)C(=O)OCc2c1cc1n(c2=O)Cc2cc3ccccc3nc2-1 [CMP, camptothecin, reference compound] : 160

----------
PROTOCOL TEXT: Lipophilicity determination by HPLC (capacity factor k, distribution coefficients DpH)
Assay type: physicochemical
SETTINGS: MeOH 72 % / H2O 28 %, C18
EXPERIMENTAL READOUT: log k
Respond using a number only.

Look over these answered cases.
INSERT INTO measurements (item_smiles, data_value) VALUES
  ('O=C(Nc1cccc(Cl)c1)c1ccc2ccccc2c1O', 0.8556),
  ('O=C(Nc1cc(Cl)cc(Cl)c1)c1ccc2ccccc2c1O', 0.9704),
  ('O=C(Nc1ccccc1)c1ccc2ccccc2c1O', 0.6084);

Please look at the following molecule next.
// recorded log k for O=C(Nc1c(Cl)cc(Cl)cc1Cl)c1ccc2ccccc2c1O : 0.8398

----------
Listing of entries alongside the reported log D6.5.
PROTOCOL TEXT: Lipophilicity determination by HPLC (capacity factor k, distribution coefficients DpH)
Assay type: physicochemical
SETTINGS: MeOH 72 % / acetate-buffered saline pH 6.5 28 %
Respond using a number only.

Look over these answered cases.
INSERT INTO measurements (item_smiles, data_value) VALUES
  ('O=C(Nc1cccc(Cl)c1)c1ccc2ccccc2c1O', 0.7362),
  ('O=C(Nc1c(Cl)cc(Cl)cc1Cl)c1ccc2ccccc2c1O', 0.7254);

// recorded log D6.5 for O=C(Nc1ccccc1)c1ccc2ccccc2c1O : 0.5139

// recorded log D6.5 for O=C(Nc1cc(Cl)c(Cl)cc1Cl)c1ccc2ccccc2c1O : 0.5314

----------
Listing of entries alongside the reported log k.
PROTOCOL TEXT: Lipophilicity determination by HPLC (capacity factor k, distribution coefficients DpH)
Type: physicochemical
SETTINGS: MeOH 72 % / H2O 28 %, C18

INSERT INTO measurements (compound, data_value) VALUES
  ('O=C(Nc1ccc(Cl)cc1Cl)c1ccc2ccccc2c1O [Compound 6]', 0.7387),
  ('O=C(Nc1ccc(Cl)c(Cl)c1)c1ccc2ccccc2c1O [Compound 9]', 0.9304),
  ('O=C(Nc1cc(Cl)c(Cl)c(Cl)c1)c1ccc2ccccc2c1O [Compound 13]', 1.2387),
  ('O=C(Nc1cc(Cl)c(Cl)cc1Cl)c1ccc2ccccc2c1O [Compound 11]', 0.6894);

// recorded log k for O=C(Nc1ccccc1Cl)c1ccc2ccccc2c1O [Compound 2] : 0.6900

// recorded log k for O=C(Nc1ccc(Cl)cc1)c1ccc2ccccc2c1O [Compound 4] : 0.8880

----------
PROTOCOL TEXT: Lipophilicity determination by HPLC (capacity factor k, distribution coefficients DpH)
Format: physicochemical
SETTINGS: MeOH 72 % / acetate-buffered saline pH 6.5 28 %
Listing of entries alongside the reported log D6.5.
Respond using a number only.

INSERT INTO assay_data (item_smiles, experimental_readout, data_value) VALUES
  ('O=C(Nc1cccc(Cl)c1Cl)c1ccc2ccccc2c1O', 'log D6.5', 0.4371),
  ('O=C(Nc1ccc(Cl)cc1Cl)c1ccc2ccccc2c1O', 'log D6.5', 0.5168);

// recorded log D6.5 for O=C(Nc1cc(Cl)c(Cl)c(Cl)c1)c1ccc2ccccc2c1O : 1.0960
